Molecular target: Bifunctional epoxide hydrolase 2 (Homo sapiens) (UniProt P34913)
Sequence (P34913 whole entry, looked up): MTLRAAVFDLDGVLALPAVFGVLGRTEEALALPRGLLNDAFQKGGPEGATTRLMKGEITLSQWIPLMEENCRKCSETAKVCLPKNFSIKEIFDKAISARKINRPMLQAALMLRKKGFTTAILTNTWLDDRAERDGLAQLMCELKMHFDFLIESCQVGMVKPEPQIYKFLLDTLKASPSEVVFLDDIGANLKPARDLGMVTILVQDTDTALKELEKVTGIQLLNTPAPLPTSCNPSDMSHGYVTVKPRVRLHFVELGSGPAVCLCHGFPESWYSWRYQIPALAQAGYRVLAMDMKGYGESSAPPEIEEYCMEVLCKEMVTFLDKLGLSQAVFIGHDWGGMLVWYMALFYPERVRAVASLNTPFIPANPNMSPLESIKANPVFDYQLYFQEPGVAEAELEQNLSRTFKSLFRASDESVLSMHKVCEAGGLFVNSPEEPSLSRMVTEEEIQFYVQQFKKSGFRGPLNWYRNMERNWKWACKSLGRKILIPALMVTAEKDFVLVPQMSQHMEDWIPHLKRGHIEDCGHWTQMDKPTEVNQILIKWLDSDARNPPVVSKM
Assay: soluble epoxide hydrolase activators, primary screen, biochemical, human sEH (AID 717)
Conditions: purified human sEH enzymatic activity, activator screen; at 2 µM; active compounds read high
The campaign covered roughly 91,000 compounds. About 40 (0.04%) were called active. These entries were drawn from the full list.
measurement_name: activation (%)
Give bare numbers, in %.

Use the examples below as a reference point.
>>> print(df.to_string())
                                   compound  experimental_value
0  CS(=O)(=O)N1CCN(c2ccc(C(=O)NC3C4CC5CC(C4)CC3C5)cc2[N+](=O)[O-])CC1 (stereo unspecified)                 8.8
1     CCc1ccc(C(=O)CSc2nnc(C)c(=O)[nH]2)cc1                -0.4

Batch of 7 compounds: report activation for each.
1. CN(C)/C=C(\C#N)C(=O)c1cccnc1Oc1ccc(F)cc1F
2. Cc1ccc(Oc2ccc3c(c2)C(=O)N(c2cccc4cccnc24)C3=O)cc1
3. NC(=O)N1CCCC1C(=O)Nc1ccc(Cl)c(Cl)c1 (stereo unspecified)
4. CCCCCCCCOC1OC(CO)C(O)C(O)C1NC(C)=O (stereo unspecified)
5. COCCCNC(NC(=O)c1ccc(C)cc1)C(Cl)(Cl)Cl (stereo unspecified)
6. O=C(CSc1nc2ccccc2o1)N1c2ccccc2Sc2ccc(Cl)cc21
7. COc1ccc(C(=O)NC(=S)Nc2ccccc2N2CCN(S(C)(=O)=O)CC2)cc1OC

Resp:
-10.7
-10.3
-4.5
-6.6
18.3
6.7
-12

// for each compound in input: emit activation
1. O=C1c2ccccc2C(=O)c2c1cccc2N1CCN(Cc2ccccc2)CC1
2. COc1ccc(Cc2nnc(SCC(=O)c3cccc([N+](=O)[O-])c3)n2C)cc1

Resp:
[33.6, 16.7]

* * *

Biological target: Bifunctional epoxide hydrolase 2 (Homo sapiens)
Assay: soluble epoxide hydrolase activators, primary screen, biochemical, human sEH (AID 717)
Settings: purified human sEH enzymatic activity, activator screen; at 2 µM; active compounds read high
The campaign covered roughly 91,000 compounds. About 40 (0.04%) were called active. The list is a sample of the results.
Field: activation. Provide a value for each of the compounds that follow.
Give bare numbers, in %.

>>> print(df.to_string())
                                  compound  experimental_value
0  CCCCNC(=O)c1onc(CSc2cccc(OC)c2)c1C(=O)O                11.8

Would you mind giving activation for every compound in the list below?
1. COC(=O)CN(C(=S)Nc1ccc(Cl)cc1)C1CC(=O)N(c2ccc(OC)cc2)C1=O (stereo not given)
2. CC12c3ccccc3C(c3ccccc31)C1C(=O)N(Cc3cccnc3)C(=O)C12 (stereo not given)
3. O=C(CCC(=O)OCc1cccc(C(=O)Oc2ccccc2)c1)Nc1cccc2ccccc12
4. COc1ccc(C(=S)Nc2ccccc2)cc1

Resp:
1. -11.8
2. -9.7
3. -9.6
4. -3.8

* * *

Biological target: Bifunctional epoxide hydrolase 2 (Homo sapiens)
Assay: soluble epoxide hydrolase activators, primary screen, biochemical, human sEH (AID 717)
Conditions: purified human sEH enzymatic activity, activator screen; at 2 µM; active compounds read high
The campaign covered roughly 91,000 compounds. About 40 (0.04%) were called active. A selection follows.
For each entry below, report its activation value.
One number for each entry, in %.

Solved entries:
>>> df
                                   compound  experimental_value
0  O=C(NCCc1ccccn1)c1cc(C(=O)C2CCCCC2)c[nH]1                 9.3
1  CCOc1ccc(C(CCc2ccccc2)NC(=O)c2ccc(OC)c(OC)c2)cc1OCC (stereo unspecified)                23.3
2  O=S(=O)(/N=C(/Nc1ccccn1)c1ccccc1)c1ccc(Cl)cc1               -19.7

List the reported activation of each compound below.
1. O=[N+]([O-])c1ccc(NCCCN2CCOCC2)c(Cl)c1
2. COc1ccc(NC(=O)CSc2nc(N)c(-c3ccccc3)c(=O)[nH]2)cc1

Resp:
-17.1
-3.7

Can you give me activation for all of these, one by one?
1. Cc1cc([N+](=O)[O-])ccc1NCc1cccc([N+](=O)[O-])c1
2. COc1cc(C(=O)N2CCN(C/C=C/c3ccccc3)CC2)cc(OC)c1C
3. c1ccc2c(C[n+]3csc4ccccc43)cccc2c1
4. Cc1nnsc1S(=O)(=O)Cc1ccccc1Cl
5. O=C(Nc1ccn(Cc2ccccc2F)n1)c1ccc(COc2ccc(Cl)cc2Cl)o1
6. O=C(O)c1ccccc1-c1ccccc1C(=O)Nc1cccc2ccccc12

Resp:
[2.8, 11.7, 12.2, -3.8, -1.7, 6.9]
